Recorded EC50, one value per entry.
Target: endogenously expressed TGR5 in NCI H716 (Homo sapiens)
Construct: human caecum carcinoma cell line NCI-H716 which endogenously expresses human TGR5; endogenous in cells; host or cells: NCI-H716
Assay: Cell-based TGR5 assay, NCI-H716 cells endogenously expressing human TGR5, cAMP by HTRF
Details: 30 min at 37 C, 22 nM to 50 μM, read-out: pEC50 endogenously expressed TGR5 in NCI H716 (converted)
Description: Two primary cell based screens were performed. The first utilized HEK293 cells stably transfected to heterologously express human TGR5. The second screen used the human caecum carcinoma cell line NCI-H716 which endogenously expresses human TGR5. In both assays, cells are treated with candidate TGR5 activators and assessed for the increased intercellular levels of cAMP. […] TGR5-mediated cAMP generation was measured using a homogeneous time resolved fluorescence (HTRF) detection method (Cisbio). […]

# example entries with known answers
{"columns": ["compound", "EC50"],
 "data": [
  ["O=C(CCc1ccc(Cl)c(CNC2(C(=O)N3CCN(C4CC4)c4ccccc43)CC2)c1)NC[C@H](O)[C@@H](O)[C@H](O)[C@H](O)CO [Example 70]", "1260 to 50100 nM"],
  ["CN(C[C@H](O)[C@@H](O)[C@@H](O)[C@H](O)CO)C(=O)CCCCc1cc(Cl)c(CNC2(C(=O)N3CCN(C4CC4)c4ccccc43)CC2)cc1Cl [Example 220]", "< 100 nM"],
  ["CN(C[C@H](O)[C@@H](O)[C@H](O)[C@H](O)CO)C(=O)NCCCCOc1cc(Cl)c(CNC2(C(=O)N3CCN(C4CC4)c4ccccc43)CC2)cc1Cl [Example 186]", "1260 to 50100 nM"],
  ["CS(=O)(=O)N1CC(OCc2cc(Cl)ccc2Cl)(C(=O)N2CCN(C3CC3)c3ccccc32)C1 [Example 55]", "1260 to 50100 nM"],
  ["CN(C[C@H](O)[C@@H](O)[C@H](O)[C@H](O)CO)C(=O)CCc1cc(Cl)c(COC2(C(=O)N3CCN(C4CC4)c4ccccc43)CC2)cc1Cl [Example 80]", "126 to 1000 nM"]
]}

Proceed to the following item.
Query :: What value of EC50 has been recorded for this entry: CN(C[C@H](O)[C@@H](O)[C@H](O)[C@H](O)CO)C(=O)CCc1ccc(Cl)c(CN2CSC[C@H]2C(=O)N2CCN(C3CC3)c3ccccc32)c1 [Example 215]
Result :: 1260 to 50100 nM

----------
assay: Compound plasma concentration, LC-MS/MS, 8 h post dose; assay type: in vivo; settings: male, C57BL/6, mouse, mice, 30 mg/kg, plasma, read-out: Mean Example Plasma Concentration
observation_type: concentration at 8 h (ng/mL)

{"columns": ["chemical_structure", "unit_of_measurement", "concentration at 8 h"],
 "data": [
  ["CN(C(=O)C1(OCc2cc(Cl)c(CCCCC(=O)NC[C@H](O)[C@@H](O)[C@H](O)[C@H](O)CO)cc2Cl)CC1)c1ccccc1OC1CC1", "ng/mL", 1.1]
]}

a = O=C(N1CCN(C2CC2)c2ccccc21)C1(NCc2cc(Cl)ccc2Cl)CC1
b = O=C(NCCCCCc1cc(Cl)c(CN2CSC[C@H]2C(=O)N2CCN(C3CC3)c3ccccc32)cc1Cl)NCP(=O)(O)O
c = CN(C[C@H](O)[C@@H](O)[C@H](O)[C@H](O)CO)C(=O)CCCCc1cc(Cl)c(CN2CSC[C@H]2C(=O)N2CCN(C3CC3)c3ccccc32)cc1Cl
Query :: Sort entries by concentration at 8 h from minimum to maximum value. Answer with the labels in sequence, matching the requested order.
Result :: c, a, b
(c: 1.2 ng/mL, a: 9.1 ng/mL, b: 24.8 ng/mL)

----------
Molecular target: human TGR5 (Homo sapiens, UniProt Q8TDU6)
Construct: expressed in transfected cells
Sequence (Q8TDU6 1-330): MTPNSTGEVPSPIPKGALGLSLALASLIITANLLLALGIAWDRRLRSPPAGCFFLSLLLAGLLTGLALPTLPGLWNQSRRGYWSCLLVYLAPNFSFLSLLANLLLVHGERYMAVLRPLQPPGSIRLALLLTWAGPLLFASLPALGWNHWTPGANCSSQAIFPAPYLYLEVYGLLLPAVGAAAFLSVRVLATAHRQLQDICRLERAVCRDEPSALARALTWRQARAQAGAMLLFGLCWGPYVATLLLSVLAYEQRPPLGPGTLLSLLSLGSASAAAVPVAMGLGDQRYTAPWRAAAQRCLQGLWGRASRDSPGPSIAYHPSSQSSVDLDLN
Experiment: Cell-based TGR5 assay, HEK293 cells stably expressing human TGR5, cAMP by HTRF
Details: HEK293 cells stably expressing human TGR5, 30 min at 37 C, 0.05 nM to 10 μM, read-out: pEC50 Human TGR5 (converted)
The following compounds are shown together with reported EC50 values.

Would you please look over these solved cases?
{"columns": ["compound", "EC50"],
 "data": [
  ["NCCCc1cc(Cl)c(CNC2(C(=O)N3CCN(C4CC4)c4ccccc43)CC2)cc1Cl [Example 92]", "1260 to 50100 nM"],
  ["CN(C[C@H](O)[C@@H](O)[C@H](O)[C@H](O)CO)C(=O)c1cnc(SCc2cc(Cl)c(CN3CSC[C@H]3C(=O)N3CCN(C4CC4)c4ccccc43)cc2Cl)n1C [Example 231]", "126 to 1000 nM"],
  ["O=C([C@@H]1CSCN1Cc1cc(Cl)cc(O)c1Cl)N1CCN(C2CC2)c2ccccc21 [Example 169]", "< 100 nM"]
]}

Query :: Recorded EC50 for CN(C[C@H](O)[C@@H](O)[C@@H](O)[C@H](O)CO)C(=O)CCc1cc(Cl)c(CN2C[C@@H](F)C[C@H]2C(=O)N2CCN(C3CC3)c3ccccc32)cc1Cl [Example 267] , please?
Result :: 1260 to 50100 nM

Query :: I would be grateful if you could share the reported EC50 for O=C(NCCOCCOCCOCCNC(=O)c1ccc(COc2cc(Cl)c(CN3CSC[C@H]3C(=O)N3CCN(C4CC4)c4ccccc43)cc2Cl)cc1)c1ccc(COc2cc(Cl)c(CN3CSC[C@@H]3C(=O)N3CCN(C4CC4)c4ccccc43)cc2Cl)cc1 [Example 190] .
Result :: 1260 to 50100 nM

Query :: Item O=C(C1SCCN1Cc1cc(Cl)ccc1Cl)N1CCN(C2CC2)c2ccccc21 (centres unmarked) [Example 291] has what recorded EC50?
Result :: 1260 to 50100 nM

----------
molecular target: human TGR5 (Homo sapiens, UniProt Q8TDU6); construct: expressed in transfected cells; test: Cell-based TGR5 assay, HEK293 cells stably expressing human TGR5, cAMP by HTRF; conditions: HEK293 cells stably expressing human TGR5, 30 min at 37 C, 0.05 nM to 10 μM, read-out: pEC50 Human TGR5 (converted)
Listing: EC50 of selected compounds

Recorded results for 10 compounds are shown here.
{"columns": ["compound", "assay_value"],
 "data": [
  ["COC(=O)[C@H](CCCCN)NC(=O)NCCCCCc1cc(Cl)c(CN2CSC[C@H]2C(=O)N2CCN(C3CC3)c3ccccc32)cc1Cl", "0.126 to 1 µM"],
  ["O=C(NCCCN(CCCNC(=O)[C@H](O)[C@@H](O)[C@H](O)[C@H](O)CO)C(=O)CCc1cc(Cl)c(CN2CSC[C@H]2C(=O)N2CCN(C3CC3)c3ccccc32)cc1Cl)[C@H](O)[C@@H](O)[C@H](O)[C@H](O)CO", "1.26 to 50.1 µM"],
  ["O=C(O)CCc1cc(Cl)c(CNC2(C(=O)N3CCN(C4CC4)c4ccccc43)CC2)cc1Cl", "0.126 to 1 µM"],
  ["CN(C(=O)C1(OCc2cc(Cl)c(CCCCC(=O)NC[C@H](O)[C@@H](O)[C@H](O)[C@H](O)CO)cc2Cl)CC1)c1ccccc1OC1CC1", "< 0.1 µM"],
  ["CC(C)N1CC(OCc2cc(Cl)ccc2Cl)(C(=O)N2CCN(C3CC3)c3ccccc32)C1", "1.26 to 50.1 µM"],
  ["COC(=O)c1cc(NCCCCCc2cc(Cl)c(CN3CSC[C@H]3C(=O)N3CCN(C4CC4)c4ccccc43)cc2Cl)nc(N(C)C[C@H](O)[C@@H](O)[C@H](O)[C@H](O)CO)n1", "0.126 to 1 µM"],
  ["O=C([C@@H]1CCC(=O)N1Cc1cc(Cl)ccc1Cl)N1CCN(C2CC2)c2ccccc21", "1.26 to 50.1 µM"],
  ["CN(C[C@H](O)C(O)[C@H](O)[C@H](O)CO)C(=O)CC[C@H](NC(=O)CCCCc1cc(Cl)c(CN2CSC[C@H]2C(=O)N2CCN(C3CC3)c3ccccc32)cc1Cl)C(=O)N(C)C[C@H](O)[C@@H](O)[C@H](O)[C@H](O)CO (stereo partly shown)", "0.126 to 1 µM"],
  ["O=C([C@@H]1SCCN1Cc1cc(Cl)ccc1C(F)(F)F)N1CCN(C2CC2)c2ccccc21", "< 0.1 µM"],
  ["COc1ccc(COC2(C(=O)N3CCN(C4CC4)c4ccccc43)CC2)c(Cl)c1", "0.126 to 1 µM"]
]}

Query :: Would you mind telling me what EC50 value was observed for O=C(N1CCN(C2CC2)c2ccccc21)C1(OCc2cc(Cl)ccc2Cl)COC1 ?
Result :: < 0.1 µM

Query :: Look up EC50 for this compound: CN(Cc1cc(Cl)ccc1Cl)C1(C(=O)N2CCN(C3CC3)c3ccccc32)CC1
Result :: 0.126 to 1 µM

Query :: What value of EC50 has been reported for the following compound? CN(C[C@H](O)[C@@H](O)[C@@H](O)[C@H](O)CO)C(=O)NCCCc1cc(Cl)c(CNC2(C(=O)N3CCN(C4CC4)c4ccccc43)CC2)cc1Cl
Result :: 0.126 to 1 µM
